- system.name: Fuc(a1-2)[Gal(a1-3)]Gal(b1-4)GlcNAc
- experiment.description: glycan array binding signal (z-score within array); higher = stronger binding
- condition: glycan notation: IUPAC condensed, linker removed
About 410 targets per protein were measured; listed, in parts, are those with the strongest signals and a random draw of the rest.
Tick Satisfied if glycan array binding signal (z-score) is -0.3 or greater. Tick Not satisfied if glycan array binding signal (z-score) is less than -0.3.

Here are 2 binders together with their reported answers.
binder	answer.label
rCnSL-proB (Clitocybe nebularis) (protein) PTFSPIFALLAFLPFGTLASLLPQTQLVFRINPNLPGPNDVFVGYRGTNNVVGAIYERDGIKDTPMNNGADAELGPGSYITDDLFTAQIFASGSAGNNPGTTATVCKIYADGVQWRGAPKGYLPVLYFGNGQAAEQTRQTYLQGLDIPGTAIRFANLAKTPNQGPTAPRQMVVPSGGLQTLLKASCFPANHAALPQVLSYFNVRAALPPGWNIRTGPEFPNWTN	Not satisfied
Cohesin-hDECTIN-1 (Homo sapiens) (protein) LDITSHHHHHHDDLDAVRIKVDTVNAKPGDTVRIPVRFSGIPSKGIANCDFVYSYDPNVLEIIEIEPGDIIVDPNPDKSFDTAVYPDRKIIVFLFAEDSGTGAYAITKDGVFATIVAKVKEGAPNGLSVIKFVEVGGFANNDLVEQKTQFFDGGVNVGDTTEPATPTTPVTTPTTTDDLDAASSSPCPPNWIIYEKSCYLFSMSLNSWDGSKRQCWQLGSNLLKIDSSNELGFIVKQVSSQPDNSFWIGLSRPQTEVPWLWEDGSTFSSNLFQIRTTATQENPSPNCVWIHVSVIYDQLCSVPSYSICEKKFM	Satisfied

Next up:
Challenge: Quick check: does ERGIC1-EDTA (Homo sapiens), Q969X5 (protein) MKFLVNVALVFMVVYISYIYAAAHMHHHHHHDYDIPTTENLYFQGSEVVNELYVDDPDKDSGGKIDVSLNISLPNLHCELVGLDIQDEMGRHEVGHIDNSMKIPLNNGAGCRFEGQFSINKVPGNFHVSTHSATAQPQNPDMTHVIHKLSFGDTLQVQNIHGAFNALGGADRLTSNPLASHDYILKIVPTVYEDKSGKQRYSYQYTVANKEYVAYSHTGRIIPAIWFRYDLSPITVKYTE have glycan array binding signal (z-score) greater than or equal to -0.3?
Response given: Satisfied

Attribution: the supplement of paper PMC8728848
